# Organism: Rattus norvegicus
# assayMethodText: DrugMatrix - Regimen: Daily Repeat
# Assay type: toxicity, organism-based, Sprague-Dawley
# Parameters: regimen Daily Repeat, gender Male, age 6-8 weeks
# details: in vivo, po, 0 mg/kg, 72 h, tissue Blood, route oral GAVAGE, dose level Control, time 3 day, vehicle .5 % CMC
Everything with ABSOLUTE EOSINOPHIL lower than 30 CELLS/uL is NO; everything else, including exactly 30 CELLS/uL, is YES.

[[record]]
compound = "CO[C@H]1/C=C/O[C@@]2(C)Oc3c(C)c(O)c4c(c3C2=O)C2=NC3(CCN(CC(C)C)CC3)NC2=C(NC(=O)/C(C)=C\\C=C\\[C@H](C)[C@H](O)[C@@H](C)[C@@H](O)[C@@H](C)[C@H](OC(C)=O)[C@@H]1C)C4=O [RIFABUTIN]"
group = "NO"

[[record]]
compound = "OC(CCN1CCCCC1)(c1ccccc1)C1CCCCC1 (stereo not given) [TRIHEXYPHENIDYL]"
group = "NO"

[[record]]
compound = "CC(=O)CC(c1ccccc1)c1c(O)c2ccccc2oc1=O (stereo not given) [WARFARIN]"
group = "YES"

[[record]]
compound = "CN1C(=O)COc2c(C(=O)NC3CN4CCC3CC4)cc(Cl)cc21 (stereo not given) [AZASETRON]"
group = "YES"

[[record]]
compound = "C[C@]1(Cn2ccnn2)[C@H](C(=O)O)N2C(=O)C[C@H]2S1(=O)=O [TAZOBACTAM]"
group = "YES"


Q: Entry Clc1ccc2c(c1)C(N1CCNCC1)=Nc1ccccc1O2 [AMOXAPINE] : is its ABSOLUTE EOSINOPHIL no less than 30 CELLS/uL?
Result: YES

Q: Entry C#C[C@]1(O)CC[C@H]2[C@@H]3CCc4cc(OC)ccc4[C@H]3CC[C@@]21C [MESTRANOL] : is its ABSOLUTE EOSINOPHIL no less than 30 CELLS/uL?
Result: NO

Q: Entry CNC(=C[N+](=O)[O-])NCCSCc1ccc(CN(C)C)o1 [RANITIDINE] : is its ABSOLUTE EOSINOPHIL no less than 30 CELLS/uL?
Result: NO

Q: Entry CC(C)[C@H]1CC[C@H](C(=O)N[C@H](Cc2ccccc2)C(=O)O)CC1 [NATEGLINIDE] : is its ABSOLUTE EOSINOPHIL no less than 30 CELLS/uL?
Result: YES

Q: Entry C[C@](O)(CS(=O)(=O)c1ccc(F)cc1)C(=O)Nc1ccc(C#N)c(C(F)(F)F)c1 [(R)-BICALUTAMIDE] : is its ABSOLUTE EOSINOPHIL no less than 30 CELLS/uL?
Result: YES
